Tested on: T-47D breast
Assay: NCI-60 one-dose screen, 48 h (100 = growth as untreated, 0 = no growth, -100 = all killed)
Details: 10 µM unless noted
About 83,000 compounds went through this panel and 20% of them were active in at least one assay; those are over-represented in the sample as a whole.
Flag rule - growth less than 70% flags Met; the remaining entries get Not met.

Does the reported growth of the following compound sit strictly below 70%? "CCOC(=O)c1c(Nc2ccccc2)nn2c(-c3ccc(OC)cc3)ccnc12"
Not met

Another compound: "CCN1CCN(Cc2ccc(C(=O)Nc3ccc(C)c(Oc4ccc(-c5[nH]nc6ncnc(N)c56)cc4)c3)cc2C(F)(F)F)CC1"
Not met

Another compound: "Cc1cc2nc(C(Cl)Cl)nc(-c3cccs3)n2n1"
Met

Another compound: "O=C1[C@@H]2Cc3c([nH]c4ccccc34)[C@H](c3c(Cl)cccc3Cl)N2C(=O)CN1C1CCN(CC2CCCCC2)CC1"
Met

Another compound: "C#CCC#CCN1CCC[C@H]1C(=O)NCC(=O)OC"
Not met

Another compound: "CCNC(=O)Oc1ccc(/C(=C(/C)c2ccccc2)c2ccc(OCCN3CCCCCC3)cc2)cc1"
Met

Another compound: "CC1(C)[C@@H](O)CC[C@]2(C)[C@H]3CC[C@@H]4[C@H]5[C@H](C(=O)/C=C\c6ccc([N+](=O)[O-])cc6)CC[C@]5(O)CC[C@@]4(C)[C@]3(C)CC[C@@H]12"
Met

Another compound: "COc1ccc2[nH]cc(/C=N/Nc3nc4ccccc4s3)c2c1"
Met

Another compound: "Cn1cc(-c2nc(N)nnc2-c2c[nH]c3ccccc23)c2cc(Br)ccc21"
Met

Another compound: Cc1cccc2c3c(sc12)C(c1ccc(Cl)cc1)c1c(nc(CC(=O)Nc2ccccc2)[nH]c1=O)O3 (configuration not stated)
Met

Another compound: "Nc1nc(Nc2ccccc2SSc2ccccc2Nc2nc(N)nc(-c3ccccc3)n2)nc(-c2ccccc2)n1"
Not met

Another compound: "COc1ccc(C(=O)c2c(N)c(C#N)cn2-c2ccccc2OC)cc1"
Met

Another compound: CCC1=Cc2cc(OC)ccc2OC12C=Cc1cc(OC)ccc1O2 (configuration not stated)
Met

Another compound: "COc1cccc(/C=C(/C)c2ccc3cccc(OC)c3[o+]2)c1O"
Not met

Another compound: COc1ccc(CCOc2cc3c(cc2OC)CCN(C(=O)NCc2cocn2)C3c2ccc(C)cc2C)cc1 (configuration not stated)
Met

Another compound: "O=C(Nc1nc2ccc([N+](=O)[O-])cc2s1)Nc1ccccc1Br"
Met

Another compound: "CC1(C)[C@@H](O)CC[C@]2(C)[C@H]3CC[C@@H]4[C@H]5[C@H](C(=O)/C=C\c6ccccn6)CC[C@]5(O)CC[C@@]4(C)[C@]3(C)CC[C@@H]12"
Met

Another compound: "N/C(=N\C(N)=N\c1nc2ccccc2s1)c1ccc2ccccc2c1"
Not met

Another compound: "O=C(Nc1ccc(F)c(F)c1)c1cc(-c2ccc(F)cc2F)ccc1O"
Met

Another compound: "O=C(O)c1ccc(-n2cc(CNc3cc(F)c(F)c(F)c3)c(-c3cccc(F)c3)n2)cc1"
Not met

Another compound: "O=C(Cn1c(-c2ccccc2)nc2cc(Cl)c(Cl)cc21)N=Nc1c(O)[nH]c2ccc(Cl)cc12"
Met

Another compound: "Cn1ccnc1C(=O)/C=C/c1ccc(CNC(=O)c2ccc(F)cc2)cc1"
Met

Another compound: "Clc1ccc(N/N=c2/oc3ccccc3cc2-c2cc3ccccc3[nH]2)cc1"
Met

Another compound: "CC1(COc2ccc3ncc(C#Cc4cncc(C(=O)Nc5cccc(C(F)(F)F)c5)c4)n3n2)COC1"
Not met

Another compound: "O=c1[nH]c(Sc2sc3ccc(Cl)cc3c2CBr)nc(=S)[nH]1"
Met

Another compound: "COc1ccc(S(=O)(=O)NCCCNc2nccc(-c3cn(C(C)(C)C)nc3-c3ccc(Cl)c(OC)c3)n2)cc1"
Not met

Another compound: CCN(CC)c1ccc2c(c1)Oc1nc(N)c(C#N)c(N)c1C2Sc1ccc(C)cc1 (configuration not stated)
Met

Another compound: "O=C(CSc1nc2ccccc2c(=O)n1-c1ccc(Cl)cc1)N/N=C/c1ccc(N2CCCCC2)cc1"
Not met

Another compound: COc1ccc(/C=N/NC2=NC3C(S2)N(C)C(=O)N3C)cc1 (configuration not stated)
Met

Another compound: CCNC(=O)N1CCc2cc(OC)c(OCCc3ccc(OC)c(N)c3)cc2C1c1ccc(C)cc1C (configuration not stated)
Met

Another compound: "O=C(Cn1cc(-c2ccccc2)nn1)Nc1nc(-c2ccc(Cl)cc2)cs1"
Not met

Another compound: "CCCCCc1ccc(S(=O)(=O)Nc2cccc(-c3csc(NC(=O)CCCCCN4CCN(CCO)CC4)n3)c2)cc1"
Not met

Another compound: "CCCSc1nc(Nc2ccc(/C(C)=N\NC(N)=S)cc2)c(C#N)c(-c2ccccc2)n1"
Met

Another compound: "O=S(=O)(NCCCNc1nccc(-c2[nH]c(-c3ccccc3)nc2-c2ccc(Cl)c(O)c2)n1)c1cccc2ccccc12"
Met
